- target-system: Gastrin Receptor (Cavia porcellus, UniProt H0VZC5)
- Sequence (H0VZC5 1-426): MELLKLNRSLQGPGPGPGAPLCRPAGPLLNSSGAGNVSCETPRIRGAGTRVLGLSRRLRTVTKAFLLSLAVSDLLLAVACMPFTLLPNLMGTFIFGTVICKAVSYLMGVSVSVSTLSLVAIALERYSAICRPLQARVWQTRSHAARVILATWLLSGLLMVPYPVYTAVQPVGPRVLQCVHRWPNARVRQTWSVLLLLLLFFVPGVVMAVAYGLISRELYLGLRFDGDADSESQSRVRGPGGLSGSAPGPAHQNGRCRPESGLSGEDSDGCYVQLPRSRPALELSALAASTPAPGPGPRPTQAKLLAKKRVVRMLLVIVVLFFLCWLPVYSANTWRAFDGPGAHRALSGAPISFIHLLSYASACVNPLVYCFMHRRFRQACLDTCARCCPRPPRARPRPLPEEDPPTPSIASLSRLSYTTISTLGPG
pIC50: −log10 of the molar value.
quantity: pIC50

Here's what some known entries look like.
# compound, target-system, pIC50
records = [
    ("CC1=C\\C=C\\C(=O)Cc2nc(co2)C(=O)N2CCC=C2C(=O)O[C@H](C(C)C)[C@H](C)/C=C/C(=O)NC\\C=C\\1", "Gastrin Receptor (Cavia porcellus, UniProt H0VZC5)", 7.05),
    ("CC1=C\\[C@@H](O)CC(=O)Cc2nc(co2)C(=O)N2CCC=C2C(=O)O[C@H](C(C)C)[C@H](C)/C=C/C(=O)NC\\C=C\\1 [Virginiamycin M₁, reference compound]", "Gastrin Receptor (Cavia porcellus, UniProt H0VZC5)", 6.15),
    ("CC1=C\\C=C\\[C@@H](O)Cc2nc(co2)C(=O)N2CCC=C2C(=O)O[C@H](C(C)C)[C@H](C)/C=C/C(=O)NC\\C=C\\1", "Gastrin Receptor (Cavia porcellus, UniProt H0VZC5)", 7.92),
]

(I) CC1=C\C=C\[C@H](O)Cc2nc(co2)C(=O)N2CCC=C2C(=O)O[C@H](C(C)C)[C@H](C)/C=C/C(=O)NC\C=C\1
(II) CC1=C\CCC(=O)Cc2nc(co2)C(=O)N2CCC=C2C(=O)O[C@H](C(C)C)[C@H](C)/C=C/C(=O)NC\C=C\1
Incoming: Parameter metric = pIC50. Return the lower-valued option from I and II . Answer by stating the label of the chosen item.
Outgoing: II

---

- System: Micrococcus luteus
- assay-remarks: Antibiotic activity, filter paper disc agar diffusion MIC
- Type: cell-based
- experimental-context: filter paper discs on agar, 15 hours at 28°C
quantity: MIC (µM)

(P) CC1=C\CCC(=O)Cc2nc(co2)C(=O)N2CCC=C2C(=O)O[C@H](C(C)C)[C@H](C)/C=C/C(=O)NC\C=C\1
(Q) CC1=C\[C@@H](O)CC(=O)Cc2nc(co2)C(=O)N2CCC=C2C(=O)O[C@H](C(C)C)[C@H](C)/C=C/C(=O)NC\C=C\1 [Virginiamycin M₁, reference compound]
(R) CC1=C\C=C\[C@@H](O)Cc2nc(co2)C(=O)N2CCC=C2C(=O)O[C@H](C(C)C)[C@H](C)/C=C/C(=O)NC\C=C\1
(S) CC1=C\C=C\C(=O)Cc2nc(co2)C(=O)N2CCC=C2C(=O)O[C@H](C(C)C)[C@H](C)/C=C/C(=O)NC\C=C\1
Incoming: rank_up(items): orders items by reported MIC in ascending numerical order. Give your ranking as a list of the labels in the requested order.
Outgoing: Q, P, R, S
(Q: 1.5 µM, P: 15 µM, R: 90 µM, S: 250 µM)
